assay: folding stability dG unfold from trypsin proteolysis; higher = more stable
attribute measured: folding stability dG unfold (kcal/mol)
Give bare numbers, in kcal/mol.

For every item in the list below, what is its measured folding stability dG unfold?
1. SAGMTAEELAEELAKELEVEVTLENGEKRRVRVEVKVERLPDGTLLLTAKVENEETGETFEIKIEIKLESAG [r5_397_TrROS_Hall]
2. SAGGSAGGAFTVTLPDGRPVRVRLLGATFTFEVRIPPGVPDVVPGAKPDEVVKVTRVVLVVSLDSAGGSAGG [r6_907_TrMRF]

1. 2.9
2. 2.82

List the reported folding stability dG unfold of each sequence below.
1. SAGGSAGGSGDGDYKNDPNGEQERKPKPPPVPPILVFKVELDIDANGNLDLSPDLGWFPPDAISAGGSAGGS [r12_1027_TrROS]
2. SVEELAKKLAELFPNVKVTVTEEEIDGKKVKTIRIENKKTGKTYEITVLPNGEILITDSNGKKFSLEELLSA [r9_1176_TrROS_Hall]
3. SAGMEPVSIKITKIEKTPENKDYVIVTVTPPDGVPTEIKVPIEFYKSGKLKNATAEELVKLFPEYKLESAGG [r19_74_JUSTAS]
4. SAGGSADENGKPKPTLIIKIEVEHPNGQKFPLSFIFKSPEEAEEIANELANNGYEVNIRLMPLDQISAGGSA [r15_906_TrROS]
5. SAGGSAGGSAGVITVTKDPKTGKYTVTIETPSGPATTVEVSSEEEAKELAKKLGYDIDALSAGGSAGGSAGG [r11_1049_JUSTAS]

[1.55, 4.26, 1.13, 1.07, 3.89]
